Taken from paper PMC12040169.

- Assay Info: in vitro
- Reported Conditions: human, hela cells, % viability
Here, each record is paired with measured viability at 28.5 h, 10 µM data.
Measured Attribute: viability at 28.5 h, 10 µM

1) O=C(O)c1cc(-c2ccc3c(c2)OCCO3)nc2ccccc12 | 92.5%
2) Cn1ccc(NC(=O)c2cccc(S(=O)(=O)N3CCCC3)c2)n1 | 104%
3) CC(CNC(=O)COc1ccc2ccccc2c1Br)CN(C)C (stereo not drawn) | 94.9%
4) Cc1nn(C)c(N2CCNCC2)c1NC(=O)Cc1c[nH]c2ccccc12 [CBK050256T] | 97.1%
5) CC(=O)N[C@@H](Cc1ccccc1)C(=O)N1CC[C@H]2NC(=O)[C@H](Cc3ccccc3)NC(=O)C3(C/C=C/C[C@@H]2C1)CCOCC3 | 82.2%
6) Cc1ccc(-c2c(N3CCCC3)n[nH]c2C2CC2)cc1 | 97.8%
7) Cc1nn(C)c(Oc2cccc(C(F)(F)F)c2)c1C(=O)O | 102%
8) CC1(C)[N+]([O-])=CC(c2ccc(-c3ccccc3)cc2)=[N+]([O-])C1(C)C | 98.7%
9) CCOC(=O)c1cccc(NS(=O)(=O)c2ccc(C)c([N+](=O)[O-])c2)c1 | 84.8%

###

- Assay Info: in vitro
- Reported Conditions: human, hela cells, % viability
Measured Attribute: viability at 28.5 h, 10 µM

1) Cc1ccc(C(C)(C)C)c(OC(=O)c2cnc(C)cn2)c1 | 96.5%
2) O=c1cc2oc3cc(O)c(O)cc3c(-c3cccc(OCc4ccc([N+](=O)[O-])cc4)c3)c-2cc1O | 91%
3) CCN(CC)CCOC(=O)C1(c2ccccc2)CCOc2ccccc21 (stereo not shown) [CBK009850C] | 95.6%
4) CCOC(=O)c1ccc(NC(=S)NCCN(CC)CC)cc1 | 104%
5) Cc1ncsc1C(=O)N1CCN(Cc2ccco2)C[C@@H]1C(C)C | 101%
6) Cc1cccnc1C(Cc1ccsc1)NS(=O)(=O)c1ccc2[nH]c(=O)[nH]c(=O)c2c1 (stereo not shown) | 111%
7) Cn1ccc(C(=O)N2CCCC(c3cc4ncccc4[nH]3)C2)n1 (stereo not shown) | 89.8%
8) CC1(C)CC(CC(=O)NN)(c2ccccc2)CCO1 (stereo not shown) [CBK261358C] | 86.6%
9) N#Cc1ccc(NC(=O)NCC2(N3CCOCC3)CCSC2)cc1 (stereo not shown) | 89.5%
10) O=C(NC1CCCC1)c1cc(=O)n(Cc2ccc(Cl)cc2)c2ccccc12 | 104%
11) COc1ccc(Cl)cc1NS(=O)(=O)N1CCOCC1 | 93%
12) O=C(NCc1csc2c1CCCC2)N1CC(c2ccccn2)C1 | 100%
13) Cc1cnc2c(Cl)c(C(=O)N3CCN(C)C4(CCNCC4)C3)nn2c1 | 92.9%
14) CCn1c(COc2ccccc2Cl)nnc1SCC(=O)N1c2ccccc2Sc2ccccc21 | 114%
15) O=[N+]([O-])c1ccc(-c2ccc(/C=N/Nc3nnc4c(n3)[nH]c3ccccc34)o2)cc1 | 90.4%
16) Cc1ccc(CN2C[C@@H](N)[C@H](c3cn(C)c4cnccc34)C2)o1 | 84.2%
17) COc1ccc(Cl)cc1N1CCN(Cc2ccc3ccccc3c2)CC1 | 116%
18) Cc1ccccc1NC(=O)/C(=C\c1cccnc1)NC(=O)c1ccccc1 | 93.9%
19) Cc1ccc(N2CCCn3c2nc2c3c(=O)n(CC(=O)O)c(=O)n2C)cc1 | 90.5%

###

Here, each record is paired with measured viability at 28.5 h, 10 µM data.
- Assay Info: in vitro
- Reported Conditions: human, hela cells, % viability
Measured Attribute: viability at 28.5 h, 10 µM (%)

1) Cc1ccn(-c2ccc(N3CCC(OC4CCCC4)CC3)nn2)n1 [CBK306301] | 96
2) Fc1ccc(CCN2CCCCC2c2cc3ccccc3[nH]2)cc1 (stereo not shown) [CBK107227T] | 89.6
3) Fc1ccc(-c2cn(-c3ccc4c(c3)CCO4)nn2)cc1 [CBK113132] | 97
4) Cc1cc(C)c2nc(NC(=O)c3ccccc3)sc2c1 [CBK287308] | 97.9
5) COc1ccc(Cl)cc1N1CCN(CCCn2c(=O)[nH]c3ccccc32)CC1 [CBK138338] | 95.7
6) O=C(O)CCCc1ccc2sc3ccccc3c2c1 [CBK010971] | 84.8
7) COc1ccc2cc(C)c3n[nH]c(=O)n3c2c1 [CBK283765] | 89
8) COc1ccc(C(=O)NC(NCc2ccco2)C(Cl)(Cl)Cl)cc1 (stereo not shown) [CBK262279] | 119
9) Cc1nn(C)cc1S(=O)(=O)N1CCc2cc(Cl)ccc21 [CBK282802] | 107
10) CCOc1ccc(CN2CCN(CC(=O)Nc3cc(C)on3)CC2)cc1 [CBK306116] | 115

###

Here, each record is paired with measured viability at 28.5 h, 10 µM data.
- Assay Info: in vitro
- Reported Conditions: human, hela cells, % viability
Measured Attribute: viability at 28.5 h, 10 µM (%)

1. COCOc1ccc(-c2nc(-c3cccc(NS(C)(=O)=O)c3)cnc2N)cc1 | 105
2. COc1ccc(-c2nc(NC(=O)Cc3ccccc3OC)cnc2-c2cccc(C)c2)cn1 | 111
3. CC(C)NC(=O)NC1CCCc2nc(N3CCC(CO)CC3)ncc21 (stereo not drawn) | 83.3
4. COc1ccc2c(c1)OC1(CCN(C(=O)C3CCCC3)CC1)CC2O (stereo not drawn) | 84.4
5. O=[N+]([O-])c1ccc(CN2CCN(Cc3c[nH]c4ccccc34)CC2)cc1 | 92.3
6. O=C(c1ccccc1[N+](=O)[O-])n1nc(-c2cccnc2)nc1NCc1cccs1 | 99.5
7. O=C(O)CCc1ccc(-c2cccs2)n1NC(=O)c1sc2ccccc2c1Cl | 96.1
8. O=C(NCCCN1CCOCC1)C(=O)NC1CC1 | 101
9. CC(=O)c1ccc(-c2cc(N3CCN(C(=O)c4ccco4)CC3)ncn2)s1 | 105

###

Here, each record is paired with measured activity at 1 µM data.
- System: CTL2-GFP (C. trachomatis L2/434/Bu, GFP-expressing)
- Construct: L2/434/Bu, GFP-expressing
- Assay Info: microbe, parasite or virus in culture
- Design: Intracellular C. trachomatis growth in HeLa cells, bulk GFP fluorescence relative to DMSO
- Reported Conditions: Chlamydia trachomatis, HeLa, 28.5 h; bulk GFP, mean of 2; read-out: % of control remaining
Measured Attribute: activity at 1 µM (%)

1) Cc1noc(NS(=O)(=O)c2ccc(NC(=O)COc3ccc(Cl)cc3Cl)cc2)c1C | 103
2) CCCCc1ccc(Nc2csc(N)n2)cc1 | 67.9
3) CCc1nnc(NS(=O)(=O)c2ccc(N/C=C3\C(=O)N(c4ccc(Cl)cc4)N=C3C)cc2)s1 | 91.1
4) CCc1cc(-c2n[nH]cc2-c2nc(C)cs2)c(O)cc1OC | 133
5) Cc1ccc(N2C(=O)c3[nH]nc(C)c3C2c2ccc(O)cc2)cc1 (centres unmarked) | 108

###

Here, each record is paired with measured viability at 28.5 h, 10 µM data.
- Assay Info: in vitro
- Reported Conditions: human, hela cells, % viability
Measured Attribute: viability at 28.5 h, 10 µM (%)

1) CC(NC(=O)N(C)Cc1ccc2ccccc2n1)c1nncn1C(C)C (centres unmarked) [CBK307197] | 92.9
2) C[C@@H]1CN(C(=O)OCCc2cccs2)C[C@H](C)O1 [CBK200416] | 95.5
3) O=C(CSc1nnc(-c2ccco2)[nH]1)c1ccc(O)cc1O [CBK264392] | 108
4) CC(NC(=O)N(CCC#N)C1CCCCC1)c1ccccc1 (centres unmarked) [CBK156382] | 97.2
5) OC1(c2cccnc2F)CCN(Cc2cc(F)ccc2F)CC1 [CBK284371] | 83.6

###

- Assay Info: in vitro
- Reported Conditions: human, hela cells, % viability
Here, each record is paired with measured viability at 28.5 h, 10 µM data.
Measured Attribute: viability at 28.5 h, 10 µM (%)

1) CCSc1nnc(-c2ccc([N+](=O)[O-])cc2)n1CC(C)C [CBK076724T] | 108
2) COCCn1cc(CN2CC3CCCN3C[C@H]2C)c2ccccc21 (some centres unmarked) | 95.7
3) Cc1cnc(CNC(=O)N2CCN(c3cc(C(F)(F)F)ccn3)CC2)cn1 | 107
4) CC(=O)Nc1ccc(N2C(=O)CC(N3CCN(Cc4ccc5c(c4)OCO5)CC3)C2=O)cc1 (centres unmarked) | 106
5) Nc1nc2n(c1C(=O)c1ccc(Cl)cc1)CCC2 | 92.5

###

- Assay Info: in vitro
- Reported Conditions: human, hela cells, % viability
Field: label. Allowed values: T (viability at 28.5 h, 10 µM < 90%) or F (viability at 28.5 h, 10 µM >= 90%).

1) O=[N+]([O-])c1ccc(CSc2nnc(-c3cccs3)n2Cc2ccco2)cc1 | T
2) O=C(/C=C/c1ccc2c(c1)OCO2)Nc1ccc(S(=O)(=O)Nc2cnc3ccccc3n2)cc1 | T
3) NC(=O)C1CCN(S(=O)(=O)c2ccc([N+](=O)[O-])cc2)CC1 | T
4) COc1ccc(C2=CC(c3ccc(Cl)cc3)N3N=CNC3=N2)cc1OC (stereo not drawn) | T
5) Cc1nc(CN2CCC3(CC2)CN(S(C)(=O)=O)c2ccccc23)cs1 | F
6) COc1ccc(N2CCN(c3nc(NCCO)nc(N4CCOCC4)n3)CC2)cc1 | F
7) COc1ccccc1NC(=O)N1C[C@@H]2C[C@H](C1)c1ccc(-c3cncnc3)c(=O)n1C2 | F
8) O=C(CCc1nc(O)c2c3c(sc2n1)CCCC3)NCC(=O)Nc1ccccc1Br | F
9) CCCC/C=C/c1cnc2[nH]c(=O)n(CCc3cccnc3)c2n1 | F
10) O=C1NC[C@@H](CCC(=O)N2CCCC2)N2C[C@@H](NC(=S)Nc3ccccc3)C[C@@H]12 | F
11) COc1cc(CN2Cc3cccc(C(=O)O)c3C2=O)cc(OC)c1OC | F
12) Cc1ccc(C2CC(=O)Nc3nc(-c4ccccc4)[nH]c(=O)c32)c(C)c1 (stereo not drawn) | F
13) CS(=O)(=O)c1ccc(-c2cccc(COC3CCN(C(=O)Cc4ccc(Cl)cc4)CC3)c2)cc1 | F
14) CNC(=O)c1ccc(-c2cc(C)cs2)nc1N(C)C | T
